biological target: NADPH oxidase 4 (Homo sapiens) (UniProt Q9NPH5); assay: compounds shifting NOX4 Amplex Red fluorescence – cell-based, HEK293-NOX4, tetracycline-induced, NOX inhibitor project, primary screen (AID 1160); conditions: HEK293-NOX4, Amplex Red H2O2 fluorescence, 45 min; higher = more signal, called active from +8 up or from −8 down
Sequence (Q9NPH5 whole entry, looked up): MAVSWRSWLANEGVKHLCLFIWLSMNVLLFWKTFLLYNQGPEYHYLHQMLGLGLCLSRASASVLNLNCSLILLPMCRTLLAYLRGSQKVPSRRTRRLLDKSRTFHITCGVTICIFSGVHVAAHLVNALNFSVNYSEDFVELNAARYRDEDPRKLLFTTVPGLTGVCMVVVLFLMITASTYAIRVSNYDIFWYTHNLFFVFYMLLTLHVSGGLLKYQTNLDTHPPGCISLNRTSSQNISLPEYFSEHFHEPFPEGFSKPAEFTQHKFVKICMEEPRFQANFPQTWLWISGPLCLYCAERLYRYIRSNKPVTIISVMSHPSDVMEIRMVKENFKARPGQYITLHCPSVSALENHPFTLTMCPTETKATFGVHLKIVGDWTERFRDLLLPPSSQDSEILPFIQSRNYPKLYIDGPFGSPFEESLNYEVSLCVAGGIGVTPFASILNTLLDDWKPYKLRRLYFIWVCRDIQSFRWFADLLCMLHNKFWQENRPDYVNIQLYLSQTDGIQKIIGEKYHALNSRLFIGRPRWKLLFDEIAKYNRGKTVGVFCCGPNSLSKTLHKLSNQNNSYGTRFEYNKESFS
z-score of -0.3 or higher: met. Under -0.3: not met.

Task: Check if z-score >= -0.3 (inclusive). Item: CN(C)CCCCCCNC(=O)[C@@H]1C[C@@H]2C(=O)NCC(=O)N2[C@@H]1c1cccc(OCCO)c1
Output: met

---
Task: Check if z-score >= -0.3 (inclusive). Item: CCCC[C@H]1OB(O)C[C@H]2C1=C(COc1ccccc1)C[C@H]1C(=O)N(Cc3ccccc3)C(=O)[C@H]12
Output: met

Task: Check if z-score >= -0.3 (inclusive). Item: COc1ccc([Si](C)(C)[C@H]2[C@H](CC(=O)N3CCC[C@H]3CO)O[C@@]3(C(=O)N(c4ccccc4)c4ccccc43)[C@@H]2C)cc1
Output: met

Task: Check if z-score >= -0.3 (inclusive). Item: Cc1ccc(S[C@]2(C(=O)NCC(F)(F)F)CC(=O)N(C3Cc4ccccc4C3)[C@@H]2c2ccc(CO)cc2I)cc1
Output: not met

Task: Check if z-score >= -0.3 (inclusive). Item: COc1ccc([Si](C)(C)[C@@H]2[C@@H](CCO)O[C@]3(C(=O)N(Cc4ccccc4)c4ccc(N(C=O)c5ccccc5)cc43)[C@H]2C)cc1
Output: met

Task: Check if z-score >= -0.3 (inclusive). Item: CCOC(=O)C=Cc1cccc(OC)c1O
Output: not met

Task: Check if z-score >= -0.3 (inclusive). Item: C=C(COC)C(=O)CC[C@@H](OC(=O)c1ccccc1-c1ccccc1C(=O)O)c1ccc(CO)o1
Output: not met

----------
Examples of molecules with documented z-score follow.
assay: hepatitis C replication reporter changes, two-sided – Huh7 cells, luciferase reporter, HCV replication inhibitor project, primary screen (AID 1109); settings: Huh7 HCV replicon luciferase reporter, 48 h; higher = more signal;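 note: huh7 hepatoma cells harbouring a luciferase neomycin HCV replicon reporter; luciferase luminescence as measure of HCV replicon replication; test concentration not given here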
Please respond with just the number, no unit label.

Task: For the molecule shown here, O=C1C[C@@](C(=O)O)(c2ccc([N+](=O)[O-])cc2)[C@@H](c2ccc(CO)cc2I)N1C1CCCCC1 , give the reported z-score.
Output: -1.32

Task: For the molecule shown here, CC(C)C[C@@H]1NC(=O)[C@@H]2C[C@H](C(=O)NCCCCN(C)C)[C@H](c3ccc(O)cc3)N2C1=O , give the reported z-score.
Output: -0.556

---
Task: For the molecule shown here, CCCC[C@H]1OB(O)C[C@H]2C1=C(C)Cn1c(=O)n(-c3ccccc3)c(=O)n12 , give the reported z-score.
Output: -0.759

Task: For the molecule shown here, C=CCC(OC(C)=O)[C@@H]1[C@@H](N(Cc2ccc(-c3cccc(C(F)(F)F)c3)o2)C(=O)c2ccc(C)cc2)c2cc(OCCCO)ccc2N1C(=O)c1ccc2ccccc2n1 (some centres undefined) , give the reported z-score.
Output: -0.462

----------
molecular target: Calmodulin-1 (Homo sapiens) (UniProt P0DP23); assay: small molecules binding Ca-loaded calmodulin-1 – biochemical, small-molecule microarray, Cy5-labelled CALM1, plus calcium, artefact control for SMM control-protein annotation, profiling panel (AID 1112); conditions: Cy5-CALM1 binding fluorescence, higher = more signal;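 note: score merges spot fluorescence with signal to noise from triplicate slides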
ATTRIBUTE_MEASURED: composite z-score

Use the examples below as a reference point.
Task: For the compound shown here, C=C(/C(=C/C[C@@H](OC(C)=O)c1ccc(CO)o1)c1cnc2ccccc2c1)C(C)C , give the reported composite z-score.
Output: -1.12

Task: For the compound shown here, Cc1cc(C)c(C(O)C2C=CC3C(=O)NC(=O)C3N2Nc2ccccn2)c(C)c1 (stereo not drawn) , give the reported composite z-score.
Output: 0.153

Task: For the compound shown here, COc1ccc([Si](C)(C)[C@H]2[C@H](CC(=O)N3Cc4ccccc4C[C@H]3CO)O[C@@]3(C(=O)N(Cc4cccc(I)c4)c4ccccc43)[C@@H]2C)cc1 , give the reported composite z-score.
Output: 1.49

Task: For the compound shown here, Cc1ccc([C@H]2C(C(=O)O)=C[C@@H](C(C)C)N2S(=O)(=O)c2ccc(C)cc2)cc1 , give the reported composite z-score.
Output: 0.237

Task: For the compound shown here, O=C1O[C@@H](c2ccccc2)[C@@H](c2ccccc2)N2[C@@H](c3ccc(O)cc3)[C@]3(C(=O)Nc4ccc(C#CCCO)cc43)[C@@H](C(=O)O)[C@H]12 , give the reported composite z-score.
Output: 0.933

---
Task: For the compound shown here, Cc1ccc(S[C@]2(C(=O)NCCCN(C)C)CC(=O)N(C(C)C)[C@@H]2c2ccc(CO)cc2I)cc1 , give the reported composite z-score.
Output: 0.344

Task: For the compound shown here, COc1ccc([Si](C)(C)[C@@H]2[C@@H](CC(=O)N3Cc4ccccc4C[C@H]3CO)O[C@]3(C(=O)N(Cc4cccc(N5C(=O)COc6ccccc65)c4)c4ccccc43)[C@H]2C)cc1 , give the reported composite z-score.
Output: 0.0626

Task: For the compound shown here, O=C1OCC=C[C@H]2OC34C=CCN(CCN5CCOCC5)C(=O)[C@H]3N(CCCCCCO)C(=O)[C@@H]4[C@@H]12 (stereo partly drawn) , give the reported composite z-score.
Output: -0.695

----------
test system: Sonic hedgehog protein (Shh); assay: Sonic hedgehog microarray binding compounds – biochemical, small-molecule microarray, 635/667 nm fluorescence, primary screen (AID 1151); settings: 635 nm fluorescence, higher = more signal;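 note: Shh protein binding to compounds spotted on small-molecule microarray slides; score combines spot fluorescence intensity with signal-to-noise across triplicate slides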
Examples of compounds with documented composite z-score follow.
Please respond with just the number, no unit label.

Use the examples below as a reference point.
Task: For the compound shown here, Cc1ccc(S[C@]2(C(=O)NCCCN(C)C)CC(=O)N(C(C)C)[C@@H]2c2ccc(CO)cc2I)cc1 , give the reported composite z-score.
Output: 0.0632

Task: For the compound shown here, CCCCCCC#C[Si](O[C@H](c1ccccc1)c1cn([C@H](C)c2ccccc2)nn1)(C(C)C)C(C)C , give the reported composite z-score.
Output: 0.573

Task: For the compound shown here, CC(C)C(CO)N1C(=O)[C@@H]2[C@H]3C(=O)OCC=C[C@H]3OC23C=CCN(c2ccc4ccccc4c2)C(=O)[C@@H]13 (some centres undefined) , give the reported composite z-score.
Output: -0.506

Task: For the compound shown here, COc1cc2c(cc1O)C(c1ccc(CN3CCCC3)cc1)N(Cc1sc3ccccc3c1Cl)CC2 (centres undefined) , give the reported composite z-score.
Output: 0.436

Task: For the compound shown here, O=C1OCC=C[C@H]2OC34C=CCN(c5ccc6ccccc6c5)C(=O)[C@H]3N(CCO)C(=O)[C@@H]4[C@@H]12 (some centres undefined) , give the reported composite z-score.
Output: -0.25

Task: For the compound shown here, COc1ccc([Si](C)(C)[C@@H]2[C@@H](CCO)O[C@]3(C(=O)N(Cc4ccccc4)c4ccc(N(C=O)c5ccccc5)cc43)[C@H]2C)cc1 , give the reported composite z-score.
Output: 1.26

---
Task: For the compound shown here, C=CCOC(=O)[C@@H]1[C@H]2C(=O)O[C@H](c3ccccc3)[C@H](c3ccccc3)N2[C@H](c2ccc(OCCOC(=O)[C@H]3C[C@H]4C(=O)N[C@@H](CCCC[N+](C)(C)C)C(=O)N4[C@H]3c3cccc(OCCO)c3)cc2)[C@@]12C(=O)Nc1ccc(I)cc12 , give the reported composite z-score.
Output: 1.89

Task: For the compound shown here, [N-]=[N+]=NCc1ccccc1C[C@]1(C(=O)NCCN2CCOCC2)N=C(c2ccc(OCCCO)cc2)O[C@H]1c1ccccc1CN=[N+]=[N-] , give the reported composite z-score.
Output: 1.45

Task: For the compound shown here, CC(C)OC(=O)C1=CCC(c2cccc(Cl)c2)O1 (centres undefined) , give the reported composite z-score.
Output: -1.49

----------
test system: Noggin (protein binding on small-molecule microarray); experiment: small molecules binding Noggin protein – biochemical, 635/667 nm fluorescence, primary screen (AID 1095); details: 635 nm fluorescence, higher = more signal;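 note: score merges 667 nm feature fluorescence with signal to noise over triplicate slides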
composite z-score of 0.3 or higher: true (1). Under 0.3: false (0).

Observe how each entry below is paired with its result.
Task: Check if composite z-score >= 0.3 (inclusive). Item: O=C1C[C@@](C(=O)O)(c2ccc([N+](=O)[O-])cc2)[C@@H](c2ccc(CO)cc2I)N1CC12CC3CC(CC(C3)C1)C2
Output: false (0)

Task: Check if composite z-score >= 0.3 (inclusive). Item: NC(=O)[C@]1(Cc2ccccc2)N=C(c2ccc(OCCCO)cc2)O[C@@H]1c1ccccc1
Output: false (0)

Task: Check if composite z-score >= 0.3 (inclusive). Item: COc1ccc([Si](C)(C)[C@H]2[C@H](CC(=O)N3Cc4ccccc4C[C@H]3CO)O[C@@]3(C(=O)N(Cc4cccc(I)c4)c4ccccc43)[C@@H]2C)cc1
Output: true (1)

Task: Check if composite z-score >= 0.3 (inclusive). Item: CN(C)CCCC[C@@H]1NC(=O)[C@@H]2C[C@H](C(=O)NCCCCCN)[C@H](c3ccc(O)cc3)N2C1=O
Output: false (0)

Task: Check if composite z-score >= 0.3 (inclusive). Item: Cc1ccc(N2C(=O)c3ccccc3[C@@H](C(=O)NC(C)C)[C@@H]2c2ccc(CO)cc2)nc1
Output: false (0)

Task: Check if composite z-score >= 0.3 (inclusive). Item: COC(=O)[C@@]1(Cc2ccc(F)cc2)[C@H]2c3cc(C(=O)N(C)C)n(Cc4ccccn4)c3C[C@H]2CN1C(=O)c1ccccc1
Output: true (1)

---
Task: Check if composite z-score >= 0.3 (inclusive). Item: CCCCC(=O)N(Cc1ccccc1F)[C@@H]1CC(C(=O)NCCO)=C[C@H](Oc2c(I)cc(CO)cc2OC)[C@H]1O
Output: true (1)

Task: Check if composite z-score >= 0.3 (inclusive). Item: CCOC(=O)C1=CC[C@@H](c2cccc(Cl)c2)N(S(=O)(=O)c2ccc(C)cc2)[C@H]1c1ccc(C#N)cc1
Output: false (0)
